Ref: PubChem BioAssay (NCI)

- Tested on: MDA-MB-435 melanoma
- ASSAY: NCI-60 one-dose screen, 48 h (100 = growth as untreated, 0 = no growth, -100 = all killed)
- TEST_SETTINGS: 10 µM unless noted
The panel holds about 83,000 compounds, 20% with a hit somewhere; the sample as a whole holds those more often.
// growth lookup, one value per entry
EXPERIMENTAL_READOUT: growth (%)

COMPOUND	TESTED_ON	RECORDED_RESULT
NNC(=O)N/N=C1\C(=O)N(c2nccs2)C(=O)C(=O)C1c1nc2ccccc2s1 (stereo not given)	MDA-MB-435 melanoma	109
OCc1cccnc1	MDA-MB-435 melanoma	97.2
C1CCc2onc(-c3noc4c3CCCCC4)c2CC1	MDA-MB-435 melanoma	110
O=C1NCC2CCCC1C2 (stereo not given)	MDA-MB-435 melanoma	112
O=C(NCc1ccccc1)c1cccc([N+](=O)[O-])c1	MDA-MB-435 melanoma	98.4
CC(C)(C)NCCC(O)c1cc(C(F)(F)F)nc2c(C(F)(F)F)cccc12 (stereo not given)	MDA-MB-435 melanoma	82.3
Oc1ccc(N=Cc2ccc(OCc3ccccc3)cc2)cc1	MDA-MB-435 melanoma	88.4
O=C(O)c1ccc([N+](=O)[O-])cc1S(=O)(=O)O	MDA-MB-435 melanoma	108
CC(c1ccccc1)N(C)C (stereo not given)	MDA-MB-435 melanoma	119
COc1c(CNC(=O)CCl)cc2[nH]c(C)cc2c1CNC(=O)CCl	MDA-MB-435 melanoma	50.4
CCC(C)C1CCC(O)CC1 (stereo not given)	MDA-MB-435 melanoma	103
OCC1OC(n2ccc3c2ncn2ncnc32)C(O)C1O (stereo not given)	MDA-MB-435 melanoma	62.1
CC(=O)Nc1ccc(C(=O)c2ccc(S(=O)(=O)Nc3ccccc3)cc2)cc1	MDA-MB-435 melanoma	101
O=[N+]([O-])c1ccc2[nH]c(=S)n(/C=C(/c3ccc(Cl)cc3Cl)S(=O)(=O)Cc3ccc(Cl)cc3Cl)c2c1	MDA-MB-435 melanoma	103
O=S(=O)(O)C(C(I)I)S(=O)(=O)O	MDA-MB-435 melanoma	104
COc1cccc(N=CNc2cccc(OC)c2)c1	MDA-MB-435 melanoma	102
CC(C)N(CCCC#N)C(C)C	MDA-MB-435 melanoma	103
Nc1ncnc(Nc2ccc(C(F)(F)F)cc2)n1	MDA-MB-435 melanoma	99.9
Clc1ccc(C(SCc2ccccc2)SCc2ccccc2)cc1	MDA-MB-435 melanoma	97.9
Cc1onc(-c2ccccc2Cl)c1C(=O)Cl	MDA-MB-435 melanoma	95.3
OCCNc1ccccc1	MDA-MB-435 melanoma	107
CC(=O)OCC1CCC(COC(C)=O)CC1 (stereo not given)	MDA-MB-435 melanoma	103
c1ccc2[nH]c(Cc3nc4ccccc4[nH]3)nc2c1	MDA-MB-435 melanoma	101
Nc1ccn(C2CC(N)C(CO)O2)c(=O)n1 (stereo not given)	MDA-MB-435 melanoma	83.6
Cn1c(=O)c2[nH]c(CC(=O)O)nc2n(C)c1=O	MDA-MB-435 melanoma	112
CCN(C(=O)Nc1ccccc1Cl)c1ccccc1	MDA-MB-435 melanoma	98.3
OC(CCN1CCCCC1)(c1ccccc1)c1ccccc1	MDA-MB-435 melanoma	98.9
Clc1cccc(Cl)c1CSc1nc2ccccc2n2cccc12	MDA-MB-435 melanoma	66.8
Cc1cc(NC(=O)c2ccccc2)c(Cl)cc1N	MDA-MB-435 melanoma	97.4
CCOC(=O)N[C@H]1CCc2cc(OC)c(OC)c(OC)c2-c2ccc(SC)c(=O)cc21	MDA-MB-435 melanoma	-17.1
O=c1n(CC2CO2)c(=O)n(CC2CO2)n1CC1CO1 (stereo not given)	MDA-MB-435 melanoma	90.4
NNc1ncnc2c1ncn2C1OC(CO)C(O)C1O (stereo not given)	MDA-MB-435 melanoma	56.4
CCOC(=O)C(=O)CC(=O)c1ccccc1	MDA-MB-435 melanoma	106
NC(=S)N/N=C/c1ccc(OC(=O)COc2ccccc2)cn1	MDA-MB-435 melanoma	60.2
ON1CCCC1	MDA-MB-435 melanoma	107
C1=NCCc2ccccc21	MDA-MB-435 melanoma	111
O=C1C=C(c2ccccc2)C(O)(c2ccccc2)C1 (stereo not given)	MDA-MB-435 melanoma	97.4
CCOc1ccc(NC(=S)N2CCC(CCCC3CCN(C(=S)Nc4ccc(OCC)cc4)CC3)CC2)cc1	MDA-MB-435 melanoma	90.4
CCCCCCCCCCCCSC1=C(Cl)C(=O)C(OC)=C(OC)C1=O	MDA-MB-435 melanoma	25.9
Nc1ccc2ccccc2c1-c1c(N)ccc2ccccc12	MDA-MB-435 melanoma	-4.5
O=CNCCc1ccccc1	MDA-MB-435 melanoma	102
CSCC[C@@H]1C(=O)N(C)[C@H](C(C)(C)C)N1C(=O)c1ccccc1	MDA-MB-435 melanoma	106
Cc1cc(Cc2ccccc2)c(O)c(Cc2ccccc2)c1	MDA-MB-435 melanoma	98.1
O=C1CSc2ccccc2N1	MDA-MB-435 melanoma	108
CC(C)C(C)(C)C(=O)C(C)(C)C(C)(C)C	MDA-MB-435 melanoma	108
